A collection of compounds and their measured remaining activity at 10 µM
molecular target: His6-PDK1 (aa 52-556) (Homo sapiens); construct: 15 μL His6-PDK1 (aa 52-556) 3.33 ng/well) and PDKtide; host or cells: baculovirus-infected insect cells; experiment: PDK1 kinase assay III (with Tween 20); format: biochemical; conditions: 10 μM compound, residual enzyme activity relative to DMSO control, unmarked values, read-out: % CTL
Sequence (O15530 52-556): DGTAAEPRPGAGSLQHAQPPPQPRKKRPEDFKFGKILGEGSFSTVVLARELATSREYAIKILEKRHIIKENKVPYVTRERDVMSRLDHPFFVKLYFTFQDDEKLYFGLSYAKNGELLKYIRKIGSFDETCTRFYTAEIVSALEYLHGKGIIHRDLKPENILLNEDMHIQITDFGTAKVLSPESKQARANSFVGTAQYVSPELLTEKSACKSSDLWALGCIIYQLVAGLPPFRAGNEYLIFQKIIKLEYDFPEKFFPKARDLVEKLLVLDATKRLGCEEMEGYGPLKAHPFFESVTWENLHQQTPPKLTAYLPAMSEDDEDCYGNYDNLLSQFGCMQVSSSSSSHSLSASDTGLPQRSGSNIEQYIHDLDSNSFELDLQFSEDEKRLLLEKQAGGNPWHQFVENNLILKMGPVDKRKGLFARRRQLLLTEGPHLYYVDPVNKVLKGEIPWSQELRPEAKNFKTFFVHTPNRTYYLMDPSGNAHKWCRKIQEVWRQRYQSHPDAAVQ
Parameter Measured: remaining activity at 10 µM (%)

Smiles Structure: CN(C)Cc1ccc(Nc2ncc3cc(/C=C/CNC(=O)c4cccn(Cc5ccc(C(F)(F)F)nc5)c4=O)ccc3n2)cc1
Observed Value: 19.2

Smiles Structure: CN(C)CCNC(=O)c1cccc(-c2c[nH]c(/C=C3\C(=O)Nc4cc(/C=C/CNC(=O)c5cccn(Cc6ccc(Cl)nc6)c5=O)ccc43)c2)c1
Observed Value: 18.9

Smiles Structure: CN1CCC(Nc2ccc(Nc3ncc4cc(C#CCNC(=O)c5cccn(Cc6ccc(C(F)(F)F)nc6)c5=O)ccc4n3)cc2F)CC1
Observed Value: 18.6

Smiles Structure: O=C1Nc2cc(/C=C/CNC(=O)c3cccn(Cc4cccnc4)c3=O)ccc2/C1=C/c1ccc[nH]1
Observed Value: 18.6

Smiles Structure: O=C1Nc2cc(/C=C/CNC(=O)c3cccn(CC4CCCCC4)c3=O)ccc2/C1=C/c1cnc[nH]1
Observed Value: 15.1

Smiles Structure: O=C1Nc2cc(/C=C/CNC(=O)c3cccn(Cc4ccncc4)c3=O)ccc2/C1=C/c1ccc[nH]1
Observed Value: 39.6

Smiles Structure: CN(C)Cc1ccc(Nc2ncc3cc(/C=C/CNC(=O)c4cccn(Cc5cccnc5)c4=O)ccc3n2)cc1
Observed Value: 18.3

Smiles Structure: O=C1Nc2cc(/C=C/CNC(=O)c3cccn(Cc4ccc(Cl)nc4)c3=O)ccc2/C1=C/c1ccc[nH]1
Observed Value: 21.4

Smiles Structure: Cn1cnc(Cn2cccc(C(=O)NC/C=C/c3ccc4c(c3)NC(=O)/C4=C\c3cnc[nH]3)c2=O)c1
Observed Value: 47.7

Smiles Structure: CN(C)Cc1ccc(Nc2ncc3cc(C#CCNC(=O)c4cccn(Cc5ccc(C(F)(F)F)nc5)c4=O)ccc3n2)cc1
Observed Value: 16

Smiles Structure: Cn1cncc1Cn1cccc(C(=O)NC/C=C/c2ccc3c(c2)NC(=O)/C3=C\c2cnc[nH]2)c1=O
Observed Value: 34.1

Smiles Structure: Cc1ccc(Cn2cccc(C(=O)NC/C=C/c3ccc4c(c3)NC(=O)/C4=C\c3cnc[nH]3)c2=O)cn1
Observed Value: 20.1

Smiles Structure: O=C1Nc2cc(/C=C/CNC(=O)c3cccn(Cc4cccnc4)c3=O)ccc2/C1=C/c1cnc[nH]1
Observed Value: 14.5

Smiles Structure: O=C1Nc2cc(/C=C/CNC(=O)c3cccn(CC4CCCCC4)c3=O)ccc2/C1=C/c1ccc[nH]1
Observed Value: 25.7

Smiles Structure: CN1CCC(N(C)c2ccc(Nc3ncc4cc(/C=C/CNC(=O)c5cccn(Cc6ccc(C(F)(F)F)nc6)c5=O)ccc4n3)cc2)CC1
Observed Value: 21
